Recorded clearance by entry
# Assay explanation: Oral Bioavailability (PO) and Pharmacokinetics Assay
# Type: in vivo, Sprague-Dawley rats
# Condition description: male, Sprague-Dawley, plasma; rat, IV bolus 1 mg/kg
Measurement label: clearance (mL/min/kg)

| Molecule smiles | Observed result |
| --- | --- |
| Cc1ccccc1C(=O)Nc1nc(NC(=O)c2ccccc2)nn1-c1ccccc1 | 18.4 |
| O=C(/C=C/c1ccccc1)Nc1nc(NC(=O)c2ccccc2)nn1-c1ccccc1 | 16.6 |
| Cc1ccccc1C(=O)Nc1nc(NC(=O)c2ccccc2)n(-c2ccccc2)n1 | 12.2 |
| O=C(Nc1nc(NC(=O)c2ccccc2)n(-c2ccccc2)n1)c1ccccc1 | 15.7 |
| Cc1ccccc1C(=O)Nc1nc(NC(=O)c2ccccc2C)n(-c2ccccc2)n1 | 4.03 |

* * *

# Test system: LS-174T (colon)
# Assay explanation: Cancer Cell Proliferation Assay (acid phosphatase, 72 hrs)
# Type: cell-based
# Condition description: Homo sapiens, LS174T, read-out: IC50 on cancer cell line proliferation, LS-174T
pIC50: −log10 of the molar value.
Could you label it Criterion met if measured pIC50 is 6 or higher, and Criterion not met otherwise?

| Molecule | Class label |
| --- | --- |
| Cc1ccccc1C(=O)Nc1nc(-c2ncccc2C)nn1-c1ccccc1 [Compound S3] | Criterion met |
| O=C(/C=C/c1ccccc1)Nc1nc(NC(=O)c2ccccc2)nn1-c1ccccc1 [Compound C] | Criterion not met |
| Cc1ccccc1C(=O)Nc1nc(-c2ccccn2)nn1-c1ccc(OC(F)(F)F)cc1 [Compound H3] | Criterion met |
| Cc1ccc(-c2nc(NC(=O)c3ccccc3C)n(-c3ccccc3)n2)nc1 [Compound R3] | Criterion not met |
| Cc1ccccc1C(=O)Nc1nc(NC(=O)c2ccccc2C)n(-c2ccc(Cl)cc2)n1 [Compound Q3] | Criterion not met |
| Cc1ccccc1C(=O)Nc1nc(NC(=O)c2ccccc2)nn1-c1ccccc1 [Compound K] | Criterion not met |
| Cc1ccccc1C(=O)Nc1nc(-c2ccccn2)nn1-c1ccccc1 [Compound Q2] | Criterion not met |
| O=C(Nc1nc(NC(=O)c2ccccc2)n(-c2ccc(OC(F)(F)F)cc2)n1)c1ccccc1 [Compound Z1] | Criterion met |

* * *

Recorded pIC50 by entry
# Test system: H1703 (Lung)
# Assay explanation: Cancer Cell Proliferation Assay (acid phosphatase, 72 hrs)
# Type: cell-based
# Condition description: Homo sapiens, NCI-H1703, read-out: IC50 on cancer cell line proliferation, H1703
pIC50: −log10 of the molar value.

| Molecule smiles | pIC50 |
| --- | --- |
| Cc1ccccc1C(=O)Nc1nc(-c2ncccc2C)nn1-c1ccccc1 | 5.57 |
| Cc1ccccc1C(=O)Nc1nc(NC(=O)c2ccccc2)nn1-c1ccccc1 | 5.46 |
| Cc1ccc(-c2nc(NC(=O)c3ccccc3C)n(-c3ccccc3)n2)nc1 | 5.58 |
| O=C(Nc1nc(-c2ccccn2)nn1-c1ccccc1)c1ccccc1 | 5.33 |
| O=C(/C=C/c1ccccc1)Nc1nc(NC(=O)c2ccccc2)nn1-c1ccccc1 | 5.59 |
| Cc1ccccc1C(=O)Nc1nc(-c2ccccn2)nn1-c1ccc(OC(F)(F)F)cc1 | 5.52 |
| O=C(Nc1nc(NC(=O)c2ccccc2)n(-c2ccc(OC(F)(F)F)cc2)n1)c1ccccc1 | 6.32 |
| Cc1ccccc1C(=O)Nc1nc(NC(=O)c2ccccc2C)n(-c2ccc(Cl)cc2)n1 | 5.81 |

* * *

# Assay explanation: Oral Bioavailability (PO) and Pharmacokinetics Assay
# Format: in vivo, Sprague-Dawley rats
# Condition description: male, Sprague-Dawley, rat, plasma, iv, 1 mg/kg, IV bolus 1 mg/kg, read-out: Vss
Could you label it criterion met if measured Vd is 0.4 L/kg or higher, and criterion not met otherwise?

| Molecule smiles | Class label |
| --- | --- |
| O=C(Nc1nc(NC(=O)c2ccccc2)n(-c2ccccc2)n1)c1ccccc1 | criterion not met |
| Cc1ccccc1C(=O)Nc1nc(NC(=O)c2ccccc2)nn1-c1ccccc1 | criterion met |
| O=C(/C=C/c1ccccc1)Nc1nc(NC(=O)c2ccccc2)nn1-c1ccccc1 | criterion met |

* * *

# Test target: UniProtKB O60260
# Sequence (O60260 whole entry): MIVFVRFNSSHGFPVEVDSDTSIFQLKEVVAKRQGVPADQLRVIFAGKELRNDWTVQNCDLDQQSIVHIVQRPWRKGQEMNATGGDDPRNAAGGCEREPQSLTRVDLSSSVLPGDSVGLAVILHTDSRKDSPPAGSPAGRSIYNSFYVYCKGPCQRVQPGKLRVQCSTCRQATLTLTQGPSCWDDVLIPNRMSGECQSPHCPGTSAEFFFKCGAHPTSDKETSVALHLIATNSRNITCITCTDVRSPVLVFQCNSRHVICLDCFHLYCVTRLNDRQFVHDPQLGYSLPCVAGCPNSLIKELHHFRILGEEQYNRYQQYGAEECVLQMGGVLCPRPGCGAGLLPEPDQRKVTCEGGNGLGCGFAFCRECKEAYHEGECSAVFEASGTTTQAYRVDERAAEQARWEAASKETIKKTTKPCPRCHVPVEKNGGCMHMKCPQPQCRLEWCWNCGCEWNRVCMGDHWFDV
# Assay explanation: Activity-Based Probe Assay using an Ubiquitin vinyl sulfone probe (TR-FRET)
# Type: biochemical
# Condition description: Parkin activation, HA-Ub-VS probe, heat activated Parkin; read-out: Probe Assay EC50 (μM) [Example 2]
Measurement label: EC50

| Molecule | Observed result |
| --- | --- |
| O=C(Nc1nc(NC(=O)c2ccccc2)n(-c2cccc3cccnc23)n1)c1ccccc1 [Compound O2] | > 100 µM |
| Cc1ccccc1C(=O)Nc1nc(N)n(-c2ccccc2)n1 [Compound N3] | > 100 µM |
| O=C(Nc1nc(NC(=O)c2ccccc2)n(-c2ccc(I)cc2)n1)c1ccccc1 [Compound E] | 15.3 µM |
| O=C(Nc1nc(Nc2nc(N3CCCC3)c3ccccc3n2)n(-c2ccccc2)n1)c1ccccc1 [Compound B1] | > 100 µM |
| Cc1ccccc1C(=O)Nc1nc(NC(=O)c2ccccc2C)n(-c2ccncc2)n1 [Compound B3] | > 100 µM |

* * *

# Assay explanation: Oral Bioavailability (PO) and Pharmacokinetics Assay
# Type: in vivo, Sprague-Dawley rats
# Condition description: male, Sprague-Dawley, plasma; rat, IV bolus 1 mg/kg; read-out: C0 or Cmax (ng/mL): C0
Entries whose C0 (back-extrapolated initial plasma concentration after IV dose) is below 4000 ng/mL take 1.0; entries at or above 4000 ng/mL take 0.0.

| Molecule smiles | Class label |
| --- | --- |
| O=C(Nc1nc(NC(=O)c2ccccc2)n(-c2ccccc2)n1)c1ccccc1 | 0.0 |
| Cc1ccccc1C(=O)Nc1nc(NC(=O)c2ccccc2)nn1-c1ccccc1 | 1.0 |
| Cc1ccccc1C(=O)Nc1nc(NC(=O)c2ccccc2C)n(-c2ccccc2)n1 | 0.0 |
| Cc1ccccc1C(=O)Nc1nc(NC(=O)c2ccccc2)n(-c2ccccc2)n1 | 0.0 |

* * *

# Assay explanation: Oral Bioavailability (PO) and Pharmacokinetics Assay
# Format: in vivo, Sprague-Dawley rats
# Condition description: male, Sprague-Dawley, plasma; rat, PO 5 mg/kg
# Experimental: The pharmacokinetics and oral bioavailability of various compounds was evaluated following IV or PO administration to fasted male Sprague-Dawley rats (N=3/route/dose). […] Blood samples (0.250 mL) were collected into EDTA tubes then processed to generate plasma samples. […] Plasma concentrations of each compound were determined using LC-MS/MS with a lower limit of quantitation of 1.0 ng/mL. The pharmacokinetic parameters were determined by non-compartmental methods using WinNonlin. […]
Recorded AUC(0-t) by entry

| Molecule | Unit | AUC(0-t) |
| --- | --- | --- |
| O=C(Nc1nc(NC(=O)c2ccccc2)n(-c2ccccc2)n1)c1ccccc1 [Compound A] | µg·h/mL | 0.371 |
| Cc1ccccc1C(=O)Nc1nc(NC(=O)c2ccccc2)n(-c2ccccc2)n1 [Compound H] | µg·h/mL | 0.41 |
| Cc1ccccc1C(=O)Nc1nc(NC(=O)c2ccccc2)nn1-c1ccccc1 [Compound K] | µg·h/mL | 0.172 |
| O=C(/C=C/c1ccccc1)Nc1nc(NC(=O)c2ccccc2)nn1-c1ccccc1 [Compound C] | µg·h/mL | 0.114 |

* * *

# Assay explanation: Microsomal Stability Assay, rat liver microsomes
# Assay type: in vitro ADME
# Condition description: rat, liver microsomes, pH 7.4; 1 μM compound, 1.0 mg/mL microsome, NADPH; read-out: RLM t1/2
Entries whose half-life at 1 μM is below 40 min take Met; entries at or above 40 min take Not met.

| Compound | Class label |
| --- | --- |
| O=C(Nc1nc(Nc2ncnc3ccccc23)n(-c2ccccc2)n1)c1ccccc1 | Not met |
| Cc1ccccc1C(=O)Nc1nc(NC(=O)/C=C/c2ccccc2)n(-c2ccccc2)n1 | Met |
| O=C(Nc1nc(NC(=O)c2cc3ccccc3s2)n(-c2ccccc2)n1)c1ccccc1 | Met |
| Cc1ccccc1C(=O)Nc1nc(NC(=O)c2ccccc2C)n(-c2ccc(Cl)cc2)n1 | Not met |
| O=C(Nc1nc(NC(=O)c2ccccc2)n(-c2ccc(OC(F)(F)F)cc2)n1)c1ccccc1 | Met |
| O=C(Nc1nc(NC(=O)c2ccccc2)n(-c2ccc3ncccc3c2)n1)c1ccccc1 | Not met |
| O=C(Nc1nc(NC(=O)c2ccccc2)n(-c2ccc3c(c2)OCCO3)n1)c1ccccc1 [Compound E2] | Met |
| O=C(Nc1nc(-c2ccccn2)nn1-c1ccccc1)c1ccccc1 | Met |
| Cc1ccccc1C(=O)Nc1nc(NC(=O)c2ccccc2C)n(-c2ccccc2)n1 | Not met |
| O=C(Nc1nc(NC(=O)c2ccco2)n(-c2ccccc2)n1)c1ccccc1 | Not met |
| O=C(/C=C/c1ccccc1)Nc1nc(NC(=O)c2ccccc2)nn1-c1ccccc1 | Met |
| Cc1ccccc1C(=O)Nc1nc(Nc2ncnc3ccccc23)n(-c2ccccc2)n1 | Not met |
| Cc1ccccc1C(=O)Nc1nc(NC(=O)c2cccs2)nn1-c1ccccc1 | Met |
| O=C(Nc1nc(Nc2ncnc3ccccc23)n(-c2ccccc2)n1)c1ccco1 | Not met |
| O=C(/C=C/c1ccccc1)Nc1nc(NC(=O)c2ccccc2)nn1-c1ccccn1 | Met |
| Cc1ccccc1C(=O)Nc1nc(-c2ccccn2)nn1-c1ccccc1 | Not met |

Origin of values: patent US10308617B2
